Target: UniProt:P05177
Sequence (P05177 1-516): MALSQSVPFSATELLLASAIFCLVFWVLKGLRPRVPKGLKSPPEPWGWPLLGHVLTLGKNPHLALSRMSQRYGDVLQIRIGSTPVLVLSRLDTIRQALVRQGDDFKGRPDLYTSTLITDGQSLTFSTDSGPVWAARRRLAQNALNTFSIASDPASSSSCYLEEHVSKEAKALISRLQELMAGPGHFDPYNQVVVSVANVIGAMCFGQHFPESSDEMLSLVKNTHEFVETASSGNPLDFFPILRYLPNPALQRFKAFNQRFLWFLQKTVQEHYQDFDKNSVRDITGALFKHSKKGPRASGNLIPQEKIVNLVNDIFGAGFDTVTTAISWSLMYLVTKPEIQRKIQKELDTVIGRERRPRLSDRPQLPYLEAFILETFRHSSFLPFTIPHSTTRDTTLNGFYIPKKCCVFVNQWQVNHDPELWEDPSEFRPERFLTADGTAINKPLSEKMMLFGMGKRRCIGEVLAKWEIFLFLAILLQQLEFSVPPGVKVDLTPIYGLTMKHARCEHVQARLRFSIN
Assay: Inhibition of phenacetin O-deethylation in HLMs
Assay type: in vitro ADME
Design: tissue Cypex Ltd. (UK); host or cells: pooled human liver microsomes, ten donors
Settings: classification of Kong et al.; read-out: potency class of inhibitor by IC50
property: IC50

Query: Using the record for Cc1c(S(=O)(=O)O)oc2c1C(=O)C(=O)c1c-2ccc2c1CCCC2(C)C [STS, sodium tanshinone IIA sulfonate] , state its measured IC50.
Reply: ≥ 50 µM
